Biological target: UniProt P51677
Assay: Calcium mobilization assay (inhibition of eotaxin-induced intracellular calcium mobilization in CCR3/HEK293 cells)
Type: cell-based
Set-up: expressed in transfected cells
Details: 1.25 µg/ml test compound; eotaxin 10 nM; CCR3/HEK293 cells (Table 2b)
Experimental: Compounds 93-162 used in this assay were synthesized by using the method described in Example 6. CCR-3 transfectant cells (CCR3/HEK293) were isolated and resuspended with assay buffer (20 mM HEPES, 125 mM NaCl, 5 mM KCl; 0.5 mM glucose, 1 mM CaCl2, 1 mM MgCl2, 0.1 % BSA). […] Cells were excited at 340 nm and 380 nm in a fluorimeter (ARGUS50, FDSS2000, Hamamatsu Photonics) and the relative ratio of the fluorescence emitted at 510 nm was recorded. […]
ASSAY METRIC: Ca^2+ mobilization 1.25 µg/ml (inhibition %)
One number for each entry, in %.

Record excerpt, results attached:
[
  {
    "MOLECULE": "CC[N+](CCCNC(=O)Nc1ccc(C#N)cc1)(CCc1cccc(Cl)c1)CCC(C)C.[I-] (stereo not shown)",
    "UNIT DESCRIPTOR": "%",
    "RECORDED RESULT": 56
  },
  {
    "MOLECULE": "CC[N+](CCCNC(=O)Nc1ccc(C#N)cc1)(CCOCCOC)CCc1ccc(Cl)c(Cl)c1.[I-] (stereo not shown)",
    "UNIT DESCRIPTOR": "%",
    "RECORDED RESULT": 67
  },
  {
    "MOLECULE": "CC[N+](CCCNC(=O)Nc1ccc(OC)cc1)(CCc1ccc(Cl)cc1Cl)CC1CCC1.[I-] (stereo not shown)",
    "UNIT DESCRIPTOR": "%",
    "RECORDED RESULT": 63
  },
  {
    "MOLECULE": "C=C(C)C[N+](CC)(CCCNC(=O)Nc1ccc(OC)cc1)CCc1ccc(Cl)c(Cl)c1.[I-] (stereo not shown)",
    "UNIT DESCRIPTOR": "%",
    "RECORDED RESULT": 65
  },
  {
    "MOLECULE": "C=C(C)C[N+](CC)(CCCNC(=O)Nc1ccc(Cl)c(Cl)c1)CCc1ccc(Cl)cc1Cl.[I-] (stereo not shown)",
    "UNIT DESCRIPTOR": "%",
    "RECORDED RESULT": 46
  },
  {
    "MOLECULE": "CC[N+](CCCNC(=O)Nc1ccc(C#N)cc1)(CCc1ccc(Cl)cc1Cl)CC1CCC1.[I-] (stereo not shown)",
    "UNIT DESCRIPTOR": "%",
    "RECORDED RESULT": 70
  }
]

Moving on to another molecule below.
Prompt: # query: Ca^2+ mobilization 1.25 µg/ml (inhibition %) | item C=C(C)C[N+](CC)(CCCNC(=O)Nc1ccc(Cl)c(Cl)c1)CCc1ccc(Cl)c(Cl)c1.[I-] (stereo not shown) | system: UniProt P51677
Response: 50

----------
target: CCR-3 (Homo sapiens, UniProt P51677); assay: Calcium mobilization assay (inhibition of eotaxin-induced intracellular calcium mobilization in CCR3/HEK293 cells); format: cell-based; parameters: expressed in transfected cells; conditions: 6.25 µg/ml test compound; eotaxin 10 nM; CCR3/HEK293 cells (Table 2a)
Sequence (P51677 whole entry): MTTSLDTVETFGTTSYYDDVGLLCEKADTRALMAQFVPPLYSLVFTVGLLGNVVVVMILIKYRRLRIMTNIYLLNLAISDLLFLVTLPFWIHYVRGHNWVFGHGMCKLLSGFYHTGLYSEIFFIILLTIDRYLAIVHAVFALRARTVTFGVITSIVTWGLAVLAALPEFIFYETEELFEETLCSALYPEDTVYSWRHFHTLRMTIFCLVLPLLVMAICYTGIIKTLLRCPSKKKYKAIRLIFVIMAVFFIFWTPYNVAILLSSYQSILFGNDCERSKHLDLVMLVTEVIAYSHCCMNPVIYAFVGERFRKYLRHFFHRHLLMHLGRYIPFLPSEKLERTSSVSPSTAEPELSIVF
ASSAY METRIC: Ca^2+ mobilization 6.25 µg/ml (inhibition %)
Numbers only, in %.

Record excerpt, results attached:
[
  {
    "COMPOUND": "COc1ccc(NC(=O)NCCCN(CCCSC)C2CCCc3ccccc32)c(OC)c1 (centres unmarked) [Compound 157]",
    "RECORDED RESULT": 53
  },
  {
    "COMPOUND": "CC(C)CN(CCCNC(=O)Nc1ccc(Br)cc1)C1CCCc2ccccc21 (centres unmarked) [Compound 122]",
    "RECORDED RESULT": 66
  }
]

Working through the 3 compounds below one at a time, give Ca^2+ mobilization 6.25 µg/ml (inhibition %) for each.
1. Cc1ccc(CCN(CCCNC(=O)Nc2ccccc2-c2ccccc2)CC(C)C)cc1 [Compound 111]
2. O=C(NCCCN(CCc1ccccc1)C[C@@H]1CCCN1)Nc1ccccc1-c1ccccc1 [Compound 107]
3. CSCCCN(CCCNC(=O)Nc1ccc(Br)cc1)C1CCCc2ccccc21 (centres unmarked) [Compound 124]

Response:
51
53
55

Working through the 3 compounds below one at a time, give Ca^2+ mobilization 6.25 µg/ml (inhibition %) for each.
1. CC(C)CCN(CCCNC(=O)Nc1ccc(Br)cc1)CCc1c[nH]cn1 [Compound 119]
2. COC(=O)CCCN(CCCNC(=O)Nc1cccc(Cl)c1)CCc1ccc(Cl)c(Cl)c1 [Compound 156]
3. CCOC(=O)C1CC1CN(CCCNC(=O)Nc1cccc(C)c1)CCc1ccccc1 (centres unmarked) [Compound 138]

Response:
1. 62
2. 63
3. 56
